# Test system: HeLa
# method: Cytotoxicity against human HeLa cells assessed as inhibition of cell growth by MTT assay
# Assay type: functional, cell-based
parameter: pIC50
The meaning of pIC50 here: minus log10 of the concentration in molar units.

Tested on HeLa, the item COc1ccc2c3ccnc(C)c3n(CCCc3ccccc3)c2c1 showed pIC50 equal to 4.62

----------
# Test system: SMMC-7721
# method: Cytotoxicity against human SMMC7721 cells assessed as inhibition of cell growth after 48 hrs by MTT assay
# Format: functional, cell-based
# condition: SMMC-7721, 48 h
parameter: IC50 (µM)
Give a bare numeral; the unit µM is implied.

In plain terms, COc1ccc2c(c1)[nH]c1c(C)nccc12 has a documented IC50 of 59.4

More entries:
In plain terms, COc1cccc2c1C(=O)c1c(O)c3c(c(O)c1C2=O)C[C@@](O)(C(=O)CO)C[C@@H]3O[C@H]1C[C@H](N)[C@H](O)[C@H](C)O1 has a documented IC50 of 1.39

In plain terms, CCCCCn1c2cc(OC)ccc2c2ccnc(C)c21 has a documented IC50 of 17.2

In plain terms, CCn1c2cc(OC)ccc2c2ccnc(C)c21 has a documented IC50 of 24

In plain terms, CCCn1c2cc(OC)ccc2c2ccnc(C)c21 has a documented IC50 of 48.8

----------
# Test system: SMMC-7721
# method: Cytotoxicity against human SMMC7721 cells assessed as inhibition of cell growth after 48 hrs by MTT assay
# Type: functional, cell-based
# condition: SMMC-7721, 48 h
parameter: IC50 (µM)
Give a bare numeral; the unit µM is implied.

Solved entries:
Tested on SMMC-7721, the item COc1ccc2c3ccnc(C)c3n(CCCCBr)c2c1 showed IC50 equal to 8.34

Tested on SMMC-7721, the item COc1ccc2c3ccnc(C)c3n(C)c2c1 showed IC50 equal to 43.6

Tested on SMMC-7721, the item CCCCCCCCCCCC(=O)n1c2cc(OC)ccc2c2ccnc(C)c21 showed IC50 equal to 49.1

Tested on SMMC-7721, the item CCCCCCCCn1c2cc(OC)ccc2c2ccnc(C)c21 showed IC50 equal to 6.95

Tested on SMMC-7721, the item COc1ccc2c3ccnc(C)c3n(Cc3ccccc3C)c2c1 showed IC50 equal to 39.5

Tested on SMMC-7721, the item COc1ccc2c3ccnc(C)c3n(Cc3ccccc3)c2c1 showed IC50 equal to 45.6

Tested on SMMC-7721, the item COc1ccc2c3ccnc(C)c3n(Cc3ccc(C)cc3)c2c1 showed IC50 equal to 21.3

Tested on SMMC-7721, the item COc1ccc2c3ccnc(C)c3n(CCCCCl)c2c1 showed IC50 equal to 17.9

More entries:
Tested on SMMC-7721, the item CCCCCCn1c2cc(OC)ccc2c2ccnc(C)c21 showed IC50 equal to 14.4

----------
# System: A549
# method: Cytotoxicity against human A549 cells assessed as inhibition of cell growth after 48 hrs by MTT assay
# Type: functional, cell-based
# condition: A549, 48 h
pIC50: −log10 of the molar value.
Please use Met whenever pIC50 is not below 5, and Not met whenever it is.

Some solved cases for reference:
Query :: Threshold query (pIC50 >= 5) on CCCCCCCCn1c2cc(OC)ccc2c2ccnc(C)c21
Result :: Met

Query :: Threshold query (pIC50 >= 5) on COc1ccc2c3ccnc(C)c3n(CCCCCBr)c2c1
Result :: Met

Query :: Threshold query (pIC50 >= 5) on CCCCCCCCCCCC(=O)n1c2cc(OC)ccc2c2ccnc(C)c21
Result :: Not met

Query :: Threshold query (pIC50 >= 5) on COc1cccc2c1C(=O)c1c(O)c3c(c(O)c1C2=O)C[C@@](O)(C(=O)CO)C[C@@H]3O[C@H]1C[C@H](N)[C@H](O)[C@H](C)O1
Result :: Met

Query :: Threshold query (pIC50 >= 5) on CCCCCn1c2cc(OC)ccc2c2ccnc(C)c21
Result :: Met

More entries:
Query :: Threshold query (pIC50 >= 5) on COc1ccc2c3ccnc(C)c3n(C(=O)c3ccc(C)cc3)c2c1
Result :: Met

Query :: Threshold query (pIC50 >= 5) on COc1ccc2c3ccnc(C)c3n(C(=O)c3ccccc3)c2c1
Result :: Met

Query :: Threshold query (pIC50 >= 5) on COc1ccc2c3ccnc(C)c3n(Cc3cc(F)cc(F)c3)c2c1
Result :: Not met

Query :: Threshold query (pIC50 >= 5) on COc1ccc2c(c1)[nH]c1c(C)nccc12
Result :: Not met

Query :: Threshold query (pIC50 >= 5) on COc1ccc2c3ccnc(C)c3n(Cc3ccccc3F)c2c1
Result :: Met

Query :: Threshold query (pIC50 >= 5) on CCCCn1c2cc(OC)ccc2c2ccnc(C)c21
Result :: Met

Query :: Threshold query (pIC50 >= 5) on COc1ccc2c3ccnc(C)c3n(S(=O)(=O)c3ccccc3)c2c1
Result :: Met

Query :: Threshold query (pIC50 >= 5) on COc1ccc2c3ccnc(C)c3n(C)c2c1
Result :: Met

Query :: Threshold query (pIC50 >= 5) on COc1ccc2c3ccnc(C)c3n(CCCCCCBr)c2c1
Result :: Met

Query :: Threshold query (pIC50 >= 5) on CCCCCCn1c2cc(OC)ccc2c2ccnc(C)c21
Result :: Met

Query :: Threshold query (pIC50 >= 5) on COc1ccc2c3ccnc(C)c3n(C(C)=O)c2c1
Result :: Met

Query :: Threshold query (pIC50 >= 5) on COc1ccc2c3ccnc(C)c3n(Cc3ccc(C)cc3)c2c1
Result :: Met

Query :: Threshold query (pIC50 >= 5) on CCn1c2cc(OC)ccc2c2ccnc(C)c21
Result :: Not met

Query :: Threshold query (pIC50 >= 5) on COc1ccc2c3ccnc(C)c3n(S(=O)(=O)c3ccc(C)cc3)c2c1
Result :: Met
